Tested on: biotinyl-Ile-oxazolone
protocol-summary: self-aminoacylation, catalytic enhancement (BIO) (fold over background); higher = more active; k-Seq, kA / k0A0; sequences stand for … in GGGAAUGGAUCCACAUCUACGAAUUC…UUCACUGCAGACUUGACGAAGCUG
This sample holds only a part of the variants without activity.
# self-aminoacylation per record follows

{"sequence": "AAGUUUGCUAAGAGUCGCAAA [Fam3.1 aminoacylation ribozyme variant]", "self-aminoacylation": 1.01}
{"sequence": "ACUCACCUAGGCCAUCGGGUG [Fam2.2 aminoacylation ribozyme variant]", "self-aminoacylation": 4.74}
{"sequence": "CCACCCUUCAAGGAAUCGGUC [Fam1B.1 aminoacylation ribozyme variant]", "self-aminoacylation": 1.36}
{"sequence": "AUUACCCAGGUCAGCGAGUGA [Fam2.1 aminoacylation ribozyme variant]", "self-aminoacylation": 3.4}
{"sequence": "AAUACCCUGGCCAUCGAGUGA [Fam2.1 aminoacylation ribozyme variant]", "self-aminoacylation": 1.85}
{"sequence": "CUUCACCUAGUUCAUCGGGUG [Fam2.2 aminoacylation ribozyme variant]", "self-aminoacylation": 2.15}
{"sequence": "AAGUUUGCUAAUAAUCGCGAG [Fam3.1 aminoacylation ribozyme variant]", "self-aminoacylation": 0.983}
{"sequence": "AUUCACCUAGGUCAUGGGGCG [Fam2.2 aminoacylation ribozyme variant]", "self-aminoacylation": 2.18}
{"sequence": "AAUACCCUGGUCAACGAGUGA [Fam2.1 aminoacylation ribozyme variant]", "self-aminoacylation": 2.88}
